System: SEM cells
PROCEDURE_TEXT: cell viability relative to DMSO control; higher = less cytotoxic
TEST_CONDITIONS: HPLM + 10% dialyzed FBS; 48 h; 0.0211 µM
PROPERTY: cell viability (%)
Only the number, expressed in %, is required.

COMPOUND	OBSERVED_RESULT
c1cncc(CN2CCC(n3ncc4c(N5CCOCC5)nc(-c5ccc6[nH]ccc6c5)nc43)CC2)c1	90
CN(C)c1ccc(O)c2c1C[C@H]1C[C@H]3[C@H](N(C)C)C(O)=C(C(N)=O)C(=O)[C@@]3(O)C(O)=C1C2=O	108
COC1=CC=CC2=C1C(=NC(=N2)C3=CC=CS3)NN4C(=O)\C=C(C)/C4=O	87.5

Qu. Check the records and state cell viability for `CC(=O)Oc1ccccc1C(=O)O`
Ans. 106

Qu. Check the records and state cell viability for `CC[C@H](CC[C@@H](C)[C@H]1CC[C@H]2[C@@H]3C\C=C/4C[C@@H](O)CC[C@]4(C)[C@H]3CC[C@]12C)C(C)C`
Ans. 139

Qu. Check the records and state cell viability for `C/C=C1\NC(=O)[C@H]2CSSCC/C=C\[C@H](CC(=O)N[C@H](C(C)C)C(=O)N2)OC(=O)[C@H](C(C)C)NC1=O`
Ans. 101
